Please provide measured IC50 for the entries that follow.
- Target of assay: MMP-3CD (catalytic domain of stromelysin-1) (Homo sapiens, UniProt P08254)
- Sequence (P08254 100-272 limits assumed): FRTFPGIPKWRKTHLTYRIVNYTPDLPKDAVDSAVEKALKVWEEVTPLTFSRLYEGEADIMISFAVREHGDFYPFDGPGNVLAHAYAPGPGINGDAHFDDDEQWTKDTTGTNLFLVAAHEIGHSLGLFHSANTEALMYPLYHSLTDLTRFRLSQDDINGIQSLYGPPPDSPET
- Test details: Thiopeptolide substrate hydrolysis assay, MMP-3CD
- Assay type: biochemical
- Protocol conditions: MES buffer pH 6.0, read-out: IC50 (μM) Versus Certain MMPs: MMP-03 CD
Counter-ions that a name gives are not always drawn.
Give bare numbers, in µM.

Study these solved cases before continuing.
INSERT INTO results (molecule, measured_number) VALUES
  ('O=C(CCc1ccccc1)c1cn2c(=O)n(Cc3ccccc3)c(=O)cc2s1 [Example 8]', 3.2),
  ('O=C(Nc1ccc(-c2ccccc2)cc1)c1cn2c(=O)n(Cc3ccccc3)c(=O)cc2s1 [Example 6]', 3.5),
  ('COc1cc(CNC(=O)c2cn3c(=O)n(Cc4ccccc4)c(=O)c(C)c3s2)ccn1 [Example 37]', 10),
  ('O=C(OCc1ccncc1)c1cn2c(=O)n(Cc3ccccc3)c(=O)cc2s1 [Example 3, hydrochloride]', 11),
  ('COC(=O)c1ccc(Cn2c(=O)c(C)c3sc(C(=O)NCc4ccc(F)cc4)cn3c2=O)cc1OC.Cl [Example 69]', 10);

API: the following record is the query input.
Ask: System MMP-3CD (catalytic domain of stromelysin-1) (Homo sapiens, UniProt P08254). Read-out IC50. Item Cc1c(=O)n(Cc2ccccc2)c(=O)n2cc(C(=O)NCc3ccc4nsnc4c3)sc12 [Example 42] . Report value.
Reply: 10

---

- Target of assay: MMP-2FL (full length Gelatinase A) (Homo sapiens)
- Sequence (P08253 110-660, species assumed): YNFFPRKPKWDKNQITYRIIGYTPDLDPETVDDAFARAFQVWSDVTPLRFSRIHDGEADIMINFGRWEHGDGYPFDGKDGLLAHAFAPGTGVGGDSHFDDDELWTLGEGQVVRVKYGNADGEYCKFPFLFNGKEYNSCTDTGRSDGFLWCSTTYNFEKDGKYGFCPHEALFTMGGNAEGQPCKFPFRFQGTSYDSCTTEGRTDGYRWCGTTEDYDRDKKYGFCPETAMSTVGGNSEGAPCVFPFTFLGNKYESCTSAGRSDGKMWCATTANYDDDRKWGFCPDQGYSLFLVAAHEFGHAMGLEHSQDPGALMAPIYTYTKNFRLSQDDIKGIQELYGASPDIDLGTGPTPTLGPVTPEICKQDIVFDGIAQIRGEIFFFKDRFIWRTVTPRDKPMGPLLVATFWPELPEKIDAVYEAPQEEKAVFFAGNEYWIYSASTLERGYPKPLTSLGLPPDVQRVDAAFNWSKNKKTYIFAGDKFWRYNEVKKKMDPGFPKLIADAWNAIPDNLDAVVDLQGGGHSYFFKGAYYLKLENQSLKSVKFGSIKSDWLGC
- Test details: Thiopeptolide substrate hydrolysis assay, MMP-2FL
- Assay type: biochemical
- Protocol conditions: HEPES pH 7.0, 22° C., read-out: IC50 (μM) Versus Certain MMPs: MMP-02 FL
Structures can show the parent of a compound that is named as a salt.
Can you tell me IC50 for the items I'm about to list?

INSERT INTO assay_data (molecule, target_of_assay, readout_name, result) VALUES
  ('COc1ccc(CNC(=O)c2cn3c(=O)n(Cc4ccccc4)c(=O)c(C=O)c3s2)cc1 [Example 32]', 'MMP-2FL (full length Gelatinase A) (Homo sapiens)', 'IC50', '> 100 µM'),
  ('COC(=O)c1ccc(Cn2c(=O)c(C)c3sc(C(=O)NCc4ccc(OC)cc4)cn3c2=O)cc1 [Example 103]', 'MMP-2FL (full length Gelatinase A) (Homo sapiens)', 'IC50', '65 µM'),
  ('COC(=O)c1nc(Cn2c(=O)c(C)c3sc(C(=O)NCc4ccc(F)cc4)cn3c2=O)ncc1OC [Example 78]', 'MMP-2FL (full length Gelatinase A) (Homo sapiens)', 'IC50', '> 30 µM'),
  ('Cc1c(=O)n(Cc2ccc(Br)cc2)c(=O)n2cc(C(=O)NCc3ccncc3)sc12 [Example 71, hydrochloride]', 'MMP-2FL (full length Gelatinase A) (Homo sapiens)', 'IC50', '> 30 µM'),
  ('Cc1c(=O)n(Cc2ccccc2)c(=O)n2cc(C(=O)NCc3ccncc3)sc12 [Example 36, hydrochloride]', 'MMP-2FL (full length Gelatinase A) (Homo sapiens)', 'IC50', '> 100 µM');

Provide IC50 for all items below, preserving their order.
1. Cc1c(=O)n(Cc2ccccc2)c(=O)n2cc(C(=O)NCc3ccc(OC(F)(F)F)cc3)sc12 [Example 51]
2. Cc1c(=O)n(Cc2ccccc2)c(=O)n2cc(C(=O)NCc3ccc(C(F)(F)F)cc3)sc12 [Example 49]
3. O=c1cc2sc(C(O)CCc3ccccc3)cn2c(=O)n1Cc1ccccc1 (stereo not shown) [Example 5]
4. O=C(OCc1ccncc1)c1cn2c(=O)n(Cc3ccccc3)c(=O)cc2s1 [Example 3, hydrochloride]
5. Cc1c(=O)n(Cc2ccc(C(=O)O)cc2)c(=O)n2cc(C(=O)NCc3ccc(F)cc3)sc12 [Example 58]
6. COc1cc(CNC(=O)c2cn3c(=O)n(Cc4ccccc4)c(=O)c(C)c3s2)ccn1 [Example 37]
7. COc1ccc(CNC(=O)c2cn3c(=O)n(Cc4ccc(C(=O)OCCN(C)C)cc4)c(=O)c(C)c3s2)cc1 [Example 57, hydrochloride]
8. COC(=O)c1ccc(Cn2c(=O)c(C)c3sc(C(=O)NCc4ccc(F)cc4)cn3c2=O)cc1 [Example 106]

Reply:
> 30 µM
> 30 µM
> 100 µM
> 100 µM
> 100 µM
> 30 µM
> 30 µM
> 30 µM

// each listed molecule needs a value for IC50
1. Cc1c(=O)n(Cc2ccc(F)cc2)c(=O)n2cc(C(=O)NCc3ccncc3)sc12 [Example 70, hydrochloride]
2. O=C(NCc1ccc(Cl)c(Cl)c1)c1cn2c(=O)n(Cc3ccc(Cl)cc3)c(=O)cc2s1 [Example 14]

Reply:
1. > 30 µM
2. > 30 µM

Ask: Name the recorded IC50 of the item Cc1ccc(CNC(=O)c2cn3c(=O)n(Cc4ccccc4)c(=O)c(C)c3s2)cc1 [Example 48] in your answer.
Reply: > 30 µM
